Answer each item with its documented log10 of Ki.
target: CCKB receptor (Mus musculus, UniProt P56481); construct: The whole brains from male mice (CD1 22-25g; Charles River) were removed; from tissue; host or cells: cerebral cortex membranes of male CD1 mice; experiment: radioligand binding assay at the CCKB receptor in mouse cortical membranes; settings: [125I]-CCK8S 200pM, 150 min at 21 ± 3°C, read-out: CCKB pKi (converted)
Sequence (P56481 whole entry): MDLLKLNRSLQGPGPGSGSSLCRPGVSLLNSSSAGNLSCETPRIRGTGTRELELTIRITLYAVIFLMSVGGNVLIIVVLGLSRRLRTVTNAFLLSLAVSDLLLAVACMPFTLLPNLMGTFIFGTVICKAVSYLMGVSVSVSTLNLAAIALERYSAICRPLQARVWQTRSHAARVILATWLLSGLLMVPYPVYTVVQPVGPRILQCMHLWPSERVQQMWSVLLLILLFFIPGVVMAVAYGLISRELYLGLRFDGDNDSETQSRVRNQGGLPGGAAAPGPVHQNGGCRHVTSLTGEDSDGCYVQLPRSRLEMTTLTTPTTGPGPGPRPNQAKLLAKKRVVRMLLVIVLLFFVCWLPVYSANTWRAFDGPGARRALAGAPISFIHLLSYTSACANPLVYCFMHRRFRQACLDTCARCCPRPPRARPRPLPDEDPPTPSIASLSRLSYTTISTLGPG
A difference of one corresponds to tenfold Ki; all values are log10 with Ki in nM.

Take a look at these entries with their results.
COc1ccc(C[C@H](NC(=O)C2C3c4ccccc4C(c4ccccc43)C2C(=O)NCC23CC4CC(CC(C4)C2)C3)C(=O)Nc2cc(C(=O)O)cc(C(=O)O)c2)cc1 (single isomer, unassigned) [Example 12] | 2.00
O=C(O)c1cc(NC(=O)[C@@H](Cc2cccs2)NC(=O)C2C3c4ccccc4C(c4ccccc43)C2C(=O)NCC23CC4CC(CC(C4)C2)C3)cc(C(=O)O)c1 (single isomer, unassigned) [Example 21] | 1.70
O=C(O)c1cc(NC(=O)[C@H](Cc2ccccc2)NC(=O)C2C3c4ccccc4C(c4ccccc43)C2C(=O)NCc2ccc3ccccc3c2)cc(C(=O)O)c1 (single isomer, unassigned) [Example 64] | 0.70

Each of the following entries comes with a recorded value; kindly state log10 of Ki for each.
1. O=C(O)c1cc(NC(=O)[C@H](Cc2ccccc2)NC(=O)C2C3c4ccccc4C(c4ccccc43)C2C(=O)NCC2CCCCCC2)cc(C(=O)O)c1 (single isomer, unassigned) [Example 28]
2. O=C(O)c1cc(NC(=O)[C@H](CCc2ccccc2)NC(=O)C2C3c4ccccc4C(c4ccccc43)C2C(=O)NCC23CC4CC(CC(C4)C2)C3)cc(C(=O)O)c1 (stereo partly drawn) [Example 36]
3. O=C(O)c1cc(NC(=O)[C@H](Cc2cccc(F)c2)NC(=O)C2C3c4ccccc4C(c4ccccc43)C2C(=O)NCC23CC4CC(CC(C4)C2)C3)cc(C(=O)O)c1 (single isomer, unassigned) [Example 19]
4. O=C(O)c1cc(CNC(=O)[C@H](Cc2ccccc2)NC(=O)C2C3c4ccccc4C(c4ccccc43)C2C(=O)NCC23CC4CC(CC(C4)C2)C3)cc(C(=O)O)c1 (single isomer, unassigned) [Example 61]
5. O=C(O)c1cc(NC(=O)[C@H](Cc2ccccc2)NC(=O)C2C3c4ccccc4C(c4ccccc43)C2C(=O)NCCc2c[nH]c3ccccc23)cc(C(=O)O)c1 (single isomer, unassigned) [Example 51]
6. O=C(O)c1cc(NC(=O)[C@H](Cc2ccc(F)cc2)NC(=O)C2C3c4ccccc4C(c4ccccc43)C2C(=O)NCC23CC4CC(CC(C4)C2)C3)cc(C(=O)O)c1 (single isomer, unassigned) [Example 9]

[0.60, 1.80, 1.00, 1.50, 1.90, 1.70]
